# ASSAY INFO: total protein half-life in vivo (active degradation + dilution); higher = more stable protein
# DETAILS: wild type E. coli NCM3722; growth: P-lim chemostat; doubling time 12 h
Quick reference: total protein half-life in vivo of the listed items.

{"SEQUENCE CHAIN": "MSDNAQLTGLCDRFRGFYPVVIDVETAGFNAKTDALLEIAAITLKMDEQGWLMPDTTLHFHVEPFVGANLQPEALAFNGIDPNDPDRGAVSEYEALHEIFKVVRKGIKASGCNRAIMVAHNANFDHSFMMAAAERASLKRNPFHPFATFDTAALAGLALGQTVLSKACQTAGMDFDSTQAHSALYDTERTAVLFCEIVNRWKRLGGWPLSAAEEV", "QUANTITY UNIT": "h", "total protein half-life in vivo": 12}
{"SEQUENCE CHAIN": "MHPRFQTAFAQLADNLQSALEPILADKYFPALLTGEQVSSLKSATGLDEDALAFALLPLAAACARTPLSNFNVGAIARGVSGTWYFGANMEFIGATMQQTVHAEQSAISHAWLSGEKALAAITVNYTPCGHCRQFMNELNSGLDLRIHLPGREAHALRDYLPDAFGPKDLEIKTLLMDEQDHGYALTGDALSQAAIAAANRSHMPYSKSPSGVALECKDGRIFSGSYAENAAFNPTLPPLQGALILLNLKGYDYPDIQRAVLAEKADAPLIQWDATSATLKALGCHSIDRVLLA [P0ABF6]", "QUANTITY UNIT": "h", "total protein half-life in vivo": 11.7}
{"SEQUENCE CHAIN": "MLDQVCQLARNAGDAIMQVYDGTKPMDVVSKADNSPVTAADIAAHTVIMDGLRTLTPDVPVLSEEDPPGWEVRQHWQRYWLVDPLDGTKEFIKRNGEFTVNIALIDHGKPILGVVYAPVMNVMYSAAEGKAWKEECGVRKQIQVRDARPPLVVISRSHADAELKEYLQQLGEHQTTSIGSSLKFCLVAEGQAQLYPRFGPTNIWDTAAGHAVAAAAGAHVHDWQGKPLDYTPRESFLNPGFRVSIY", "QUANTITY UNIT": "h", "total protein half-life in vivo": 10.7}
{"SEQUENCE CHAIN": "MAQRVQLTATVSENQLGQRLDQALAEMFPDYSRSRIKEWILDQRVLVNGKVCDKPKEKVLGGEQVAINAEIEEEARFEPQDIPLDIVYEDEDIIIINKPRDLVVHPGAGNPDGTVLNALLHYYPPIADVPRAGIVHRLDKDTTGLMVVAKTVPAQTRLVESLQRREITREYEAVAIGHMTAGGTVDEPISRHPTKRTHMAVHPMGKPAVTHYRIMEHFRVHTRLRLRLETGRTHQIRVHMAHITHPLVGDPVYGGRPRPPKGASEAFISTLRKFDRQALHATMLRLYHPISGIEMEWHAPIPQDMVELIEVMRADFEEHKDEVDWL", "QUANTITY UNIT": "h", "total protein half-life in vivo": 11.2}
{"SEQUENCE CHAIN": "MERFDAIIIGAGAAGMFCSALAGQAGRRVLLIDNGKKPGRKILMSGGGRCNFTNLYVEPGAYLSQNPHFCKSALARFTQWDFIDLVNKHGIAWHEKTLGQLFCDDSAQQIVDMLVDECEKGNVTFRLRSEVLSVAKDETGFTLDLNGMTVGCEKLVIATGGLSMPGLGASPFGYKIAEQFGLNVLPTRAGLVPFTLHKPLLEELQVLAGVAVPSVITAENGTVFRENLLFTHRGLSGPAVLQISSYWQPGEFVSINLLPDVDLETFLNEQRNAHPNQSLKNTLAVHLPKRLVERLQQLGQIPDVSLKQLNVRDQQALISTLTDWRVQPNGTEGYRTAEVTLGGVDTNELSSRTMEARKVPGLYFIGEVMDVTGWLGGYNFQWAWSSAWACAQDLIAAKSS", "QUANTITY UNIT": "h", "total protein half-life in vivo": 10.8}
{"SEQUENCE CHAIN": "MSEQLVTPENVTTKDGKINLLDLNRQQMREFFKDLGEKPFRADQVMKWMYHYCCDNFDEMTDINKVLRGKLKEVAEIRAPEVVEEQRSSDGTIKWAIAVGDQRVETVYIPEDDRATLCVSSQVGCALECKFCSTAQQGFNRNLRVSEIIGQVWRAAKIVGAAKVTGQRPITNVVMMGMGEPLLNLNNVVPAMEIMLDDFGFGLSKRRVTLSTSGVVPALDKLGDMIDVALAISLHAPNDEIRDEIVPINKKYNIETFLAAVRRYLEKSNANQGRVTIEYVMLDHVNDGTEHAHQLAELLKDTPCKINLIPWNPFPGAPYGRSSNSRIDRFSKVLMSYGFTTIVRKTRGDDIDAACGQLAGDVIDRTKRTLRKRMQGEAIDIKAV", "QUANTITY UNIT": "h", "total protein half-life in vivo": 2.3}
{"SEQUENCE CHAIN": "MEQRHITGKSHWYHETQSSTTEYDVLPLVPEAAKVSDPFLLDVILEKETLAPFLSWLDPARVLAVDLFPDQLTVTRSQTFTAYERLSTALTVAQVCGVQRLCNYYSARLTPLPGPDSTRESNHRLAQITQYARQLASSPSIIDNRSRQHLNDVGLTAWDCVIISQIIGFIGFQARTIATFQAYLGHPVRWLPGLEIQNYADASLFADESLRWRSSYEVEKLPEEHTKSSTAELCQLAEILSLHPISLSLLEKLLNSTRGNTQPDNQLAALLCARINGSPACFATCMDSSNEYKKISTLMRKGENEINQWADRHSVERATVQAIQWLTRAPDRFSAAQFSPLLEHEKSSTQIINLLVWSGLCGWINRLKIALGETY", "QUANTITY UNIT": "h", "total protein half-life in vivo": 2.65}
{"SEQUENCE CHAIN": "MNTISSLETTDLPAAYHIEQRAHAFPWSEKTFASNQGERYLNFQLTQNGKMAAFAITQVVLDEATLFNIAVDPDYQRQGLGRALLEHLIDELEKRGVATLWLEVRASNAAAIALYESLGFNEATIRRNYYPTTDGREDAIIMALPISM [P0A944]", "QUANTITY UNIT": "h", "total protein half-life in vivo": 8.18}
{"SEQUENCE CHAIN": "MSTIEERVKKIIGEQLGVKQEEVTNNASFVEDLGADSLDTVELVMALEEEFDTEIPDEEAEKITTVQAAIDYINGHQA [P0A6A8]", "QUANTITY UNIT": "h", "total protein half-life in vivo": 10.8}
{"SEQUENCE CHAIN": "MNYRIIPVTAFSQNCSLIWCEQTRLAALVDPGGDAEKIKQEVDDSGLTLMQILLTHGHLDHVGAAAELAQHYGVPVFGPEKEDEFWLQGLPAQSRMFGLEECQPLTPDRWLNEGDTISIGNVTLQVLHCPGHTPGHVVFFDDRAKLLISGDVIFKGGVGRSDFPRGDHNQLISSIKDKLLPLGDDVIFIPGHGPLSTLGYERLHNPFLQDEMPVW", "QUANTITY UNIT": "h", "total protein half-life in vivo": 9.46}
{"SEQUENCE CHAIN": "MKALSKLKAEEGIWMTDVPVPELGHNDLLIKIRKTAICGTDVHIYNWDEWSQKTIPVPMVVGHEYVGEVVGIGQEVKGFKIGDRVSGEGHITCGHCRNCRGGRTHLCRNTIGVGVNRPGCFAEYLVIPAFNAFKIPDNISDDLAAIFDPFGNAVHTALSFDLVGEDVLVSGAGPIGIMAAAVAKHVGARNVVITDVNEYRLELARKMGITRAVNVAKENLNDVMAELGMTEGFDVGLEMSGAPPAFRTMLDTMNHGGRIAMLGIPPSDMSIDWTKVIFKGLFIKGIYGREMFETWYKMAALIQSGLDLSPIITHRFSIDDFQKGFDAMRSGQSGKVILSWD", "QUANTITY UNIT": "h", "total protein half-life in vivo": 12.6}
